Molecular target: UniProt:P00491
measured property: log10(Ki) (log10 of the value in nM)
Plainly stated, the numbers are log10 of Ki given in nM.

Ask: Quickly give me recorded log10(Ki) for OC[C@@H]1[C@H](O)C(O)CN1c1c[nH]c2c(O)ncnc12 (stereo partly drawn)
Reply: 4.10

* * *

Target: Purine nucleoside phosphorylase (Homo sapiens, UniProt P00491)
Sequence (P00491 whole entry): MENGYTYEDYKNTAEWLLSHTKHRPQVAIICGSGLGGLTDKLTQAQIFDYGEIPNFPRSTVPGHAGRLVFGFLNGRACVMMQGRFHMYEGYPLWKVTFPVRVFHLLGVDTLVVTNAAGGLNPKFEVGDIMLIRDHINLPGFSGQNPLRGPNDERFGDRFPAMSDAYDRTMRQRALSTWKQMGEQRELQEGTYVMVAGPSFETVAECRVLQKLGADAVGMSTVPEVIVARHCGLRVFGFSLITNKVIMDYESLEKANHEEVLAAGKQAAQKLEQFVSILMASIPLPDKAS
// NB: equality with 0.006 µM counts as no (0); only Ki strictly below is yes (1)

Ask: Hello, is Ki of the following compound strictly smaller than 0.006 µM? COc1[nH]cnc2c([C@@H]3N[C@H](CO)[C@H](O)C3O)cnc1-2 (some centres not stated)
Reply: yes (1)

Ask: Hello, is Ki of the following compound strictly smaller than 0.006 µM? OC[C@H]1N[C@@H](c2c(F)[nH]c3c(O)ncnc23)C(O)[C@H]1O (some centres not stated)
Reply: yes (1)

Ask: Hello, is Ki of the following compound strictly smaller than 0.006 µM? C[C@H]1N[C@@H](c2c[nH]c3c(=O)[nH]cnc23)C(O)[C@H]1O (some centres not stated)
Reply: no (0)

Ask: Hello, is Ki of the following compound strictly smaller than 0.006 µM? CCCN1[C@H](CO)[C@H](O)C(O)[C@@H]1c1c[nH]c2c(O)ncnc12 (some centres not stated)
Reply: no (0)

Ask: Hello, is Ki of the following compound strictly smaller than 0.006 µM? OC[C@H]1N[C@@H](Cc2c[nH]c3c(O)ncnc23)C(O)[C@H]1O (some centres not stated)
Reply: no (0)

Ask: Hello, is Ki of the following compound strictly smaller than 0.006 µM? Cn1cc([C@@H]2N[C@H](CO)[C@H](O)C2O)c2ncnc(O)c21 (some centres not stated)
Reply: yes (1)

Ask: Hello, is Ki of the following compound strictly smaller than 0.006 µM? Nc1[nH]cnc2c(C[C@@H]3N[C@H](CO)[C@H](O)C3O)cnc1-2 (some centres not stated)
Reply: no (0)
